Every entry's value here was drawn from PubChem BioAssay.

Experiment: PSAC antagonists in infected red cells, primary screen, cell-based, P. falciparum Indochina, OD700, 1 h (AID 1154)
Details: P. falciparum Indochina infected RBC osmotic lysis, higher = more signal, called active from +8 up or from −8 down
measured endpoint: z-score
# print the numeric value only

z-score reported for this molecule C[C@@H]1ON(c2cccc(C(=O)OC(C)(C)C)c2)[C@H](c2ccc(Br)cc2)[C@H]1C(=O)N1C(=O)OC[C@H]1Cc1ccccc1 : -0.351

z-score reported for this molecule COC(=O)[C@@]1(Cc2ccc(F)cc2)[C@H]2c3cc(C(=O)N4CCCC4)n(Cc4cc(C)n(C)n4)c3C[C@H]2CN1C(=O)c1ccccc1 : 2.02

z-score reported for this molecule C=C(COC)/C(=C/C[C@@H](OC(C)=O)c1ccc(CO)o1)c1cnc2ccccc2c1 : 4.44

z-score reported for this molecule O=C1NC(=O)C2C1C=CC(C(O)c1ccccc1)N2Nc1ccc(Cl)cc1Cl (configuration not stated) : 5.08

z-score reported for this molecule CC(C)c1ccc(NN2C(C(O)C(c3ccccc3)c3ccccc3)C=CC3C(=O)N(c4ccccc4)C(=O)C32)cc1 (configuration not stated) : 0.363

z-score reported for this molecule CC1CC/C=C\[C@H]2OC34C=CCN(Cn5nnc6ccccc65)C(=O)[C@H]3N(C(CO)C(C)C)C(=O)[C@@H]4C2C(=O)O1 (some centres not stated) : 2.43

z-score reported for this molecule CCOC(=O)C[C@H]1[C@H](OC(=O)c2cc3ccccc3oc2=O)[C@@H](NC(=O)C2CCCCC2)c2cc(OCCCO)ccc2N1C(=O)c1ccccc1 : 0.388

* * *

Assay: small-molecule microarray binders of probe aShh, primary screen, biochemical, biotinylated probe, 635/667 nm fluorescence (AID 1114);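 note: probe is biotin-labelled aShh protein from a stem cell growth factor screen; measures binding of labelled protein to compounds printed on the slide; score merges feature fluorescence at 667 nm with signal-to-noise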
Settings: higher = more signal
Assignment: determine reported composite z-score for the given molecules.
# print the numeric value only

composite z-score reported for this molecule CC1CC/C=C\[C@H]2OC34C=CCN(C(C)(C)C)C(=O)[C@H]3N(CCCCCCO)C(=O)[C@@H]4C2C(=O)O1 (stereo partly specified) : -0.0553

composite z-score reported for this molecule CN1C(=O)C2C=CC(C(O)C3CC=CCC3)N(NC(=O)OC(C)(C)C)C2C1=O (stereo unspecified) : -0.195

composite z-score reported for this molecule O=C1[C@H]2C=C(Br)[C@H](C[C@@H]2c2ccccc2)[C@@]12CO2 : -0.414

composite z-score reported for this molecule COc1ccc([C@H]2C[C@H]3C(Br)=C[C@@H]2C(=O)[C@]32CO2)cc1 : -0.138

composite z-score reported for this molecule CCN(CC)c1ccc(N2CC=CC34O[C@@H]5/C=C\CCC(C)OC(=O)C5[C@H]3C(=O)N(C(CO)C(C)C)[C@@H]4C2=O)cc1 (stereo partly specified) : 0.214

composite z-score reported for this molecule C=CCNC(=O)[C@H]1[C@@H]2C(=O)O[C@@H](c3ccccc3)[C@@H](c3ccccc3)N2[C@@H](c2ccc(OCCO)cc2)[C@]12C(=O)Nc1ccc(C#CC3=CCCCC3)cc12 : 0.13

composite z-score reported for this molecule Cc1ccc(S[C@]2(C(=O)NCCN3CCOCC3)CC(=O)N(Cc3ccccc3Cl)[C@@H]2c2ccc(CO)cc2)cc1 : -0.0035

composite z-score reported for this molecule C=C(CCCC)/C(=C/C[C@@H](OC(C)=O)c1ccccc1OCCO)c1cnc2ccccc2c1 : -0.0977

composite z-score reported for this molecule NCCCCCNC(=O)[C@@H]1C[C@@H]2C(=O)NCC(=O)N2[C@@H]1c1ccc(O)cc1 : -0.138

composite z-score reported for this molecule [N-]=[N+]=Nc1ccccc1C[C@]1(C(N)=O)N=C(c2ccc(OCCCO)cc2)O[C@H]1c1ccccc1 : 0.0723

composite z-score reported for this molecule CC1(C)[C@@H]2CC(C(O)C3C=CC4C(=O)N(c5ccccc5)C(=O)C4N3Nc3ccccc3)=C[C@H]1C2 (stereo partly specified) : 0.241

composite z-score reported for this molecule O=C1[C@H]2C=C(Br)[C@H](C[C@@H]2OCCCCO)[C@@]12CO2 : 0.149

composite z-score reported for this molecule C=CC[C@@]1(C(=O)N(C)C)N=C(c2ccc(OCCCO)cc2)O[C@@H]1c1ccccc1N=[N+]=[N-] : 0.613

composite z-score reported for this molecule CS(=O)(=O)CCOC(=O)C1=CC(CCCO)=CC(c2ccc(CN3CCCC3)cc2)N(Cc2cc3c(cc2Br)OCO3)C=C1C(=O)OCCS(C)(=O)=O (stereo unspecified) : 0.171

composite z-score reported for this molecule COc1ccc(C(=O)O[C@H]2CC[C@]3(C)C4=C(CCC3C2(C)C)[C@]2(C)CC[C@H]([C@H](C)CCCC(C)C)[C@@]2(C)CC4)cc1 (stereo partly specified) : -0.0553

composite z-score reported for this molecule O=C1O[C@H](c2ccccc2)[C@H](c2ccccc2)N2[C@H]1[C@@H](C(=O)O)[C@]1(C(=O)Nc3ccc(C#CC4=CCCCC4)cc31)[C@H]2c1ccccc1OCCO : -0.602

* * *

Assay: HepG2 cell viability effects, profiling panel, calcein-AM fluorescence, 48 h, basal (AID 1164); note: test concentration not given here
Settings: higher = more signal
Respond with yes (1) for z-score values of 0.3 and above, no (0) for values below.

Is reported z-score greater than or equal to 0.3 here: COCCOC(=O)N1C(=O)[C@@]2(c3cc(C#Cc4ccc(OC)cc4)ccc31)[C@H](C(N)=O)[C@H]1C(=O)O[C@H](c3ccccc3)[C@H](c3ccccc3)N1[C@@H]2c1ccccc1OCCO no (0)

Is reported z-score greater than or equal to 0.3 here: CC(C)OC(=O)C=C1C[C@@H](c2ccccc2C(F)(F)F)O[C@@H](c2ccccc2C(F)(F)F)O1 yes (1)

Is reported z-score greater than or equal to 0.3 here: COC(=O)[C@@]1(Cc2ccccc2)[C@H]2c3cc(C(=O)N(C)C)n(CCSCCO)c3C[C@H]2CN1C(=O)c1ccccc1 no (0)

Is reported z-score greater than or equal to 0.3 here: COCCOC(=O)N1C(=O)[C@@]2(c3ccccc31)[C@H](c1ccc(O)cc1)N1[C@H](c3ccccc3)[C@H](c3ccccc3)OC(=O)[C@H]1[C@@H]2C(=O)NC[C@H](O)c1ccccc1 yes (1)

Is reported z-score greater than or equal to 0.3 here: CCCC[C@H]1OB(O)C[C@H]2C1=C(COc1ccccc1)C[C@H]1C(=O)N(C)C(=O)[C@H]12 no (0)

Is reported z-score greater than or equal to 0.3 here: CCOC(=O)C=Cc1cc([N+](=O)[O-])ccc1O no (0)

Is reported z-score greater than or equal to 0.3 here: CN(C)CCCNC(=O)[C@@]1(c2ccc([N+](=O)[O-])cc2)CC(=O)N(C2CCCCC2)[C@@H]1c1ccc(CO)cc1I no (0)

Is reported z-score greater than or equal to 0.3 here: OC([C@@H]1CC(c2ccccc2)=NO1)[C@H]1CC(c2ccccc2)=NO1 (some centres undefined) yes (1)

Is reported z-score greater than or equal to 0.3 here: O=C(c1ccccc1)N1Cc2ccccc2[C@@H]2OC(c3ccc(OCCCO)cc3)=N[C@]2(Cc2ccccc2)C1=O no (0)

Is reported z-score greater than or equal to 0.3 here: [N-]=[N+]=NCc1ccccc1C[C@@]1(C(=O)NCC(O)CO)N=C(c2ccc(OCCCO)cc2)O[C@@H]1c1ccccc1N=[N+]=[N-] (some centres undefined) no (0)

Is reported z-score greater than or equal to 0.3 here: O=C(NCc1ccccc1)[C@@H]1c2ccccc2C(=O)N(CC23CC4CC(CC(C4)C2)C3)[C@H]1c1ccc(CO)cc1 yes (1)

Is reported z-score greater than or equal to 0.3 here: CCOC(=O)C1=CCC(c2ccc(C)cc2)N(S(=O)(=O)c2ccc(C)cc2)C1 (centres undefined) no (0)

Is reported z-score greater than or equal to 0.3 here: CN1C(=O)C2C=CC(C(O)c3cc(C(F)(F)F)cc(C(F)(F)F)c3)N(N3CCCCC3)C2C1=O (centres undefined) yes (1)

Is reported z-score greater than or equal to 0.3 here: CCc1oc(CC[C@@H](CO)NC(=O)NCCn2cc(C3(O)CCCCC3)nn2)c(C(=O)OC)c1C(=O)OC no (0)

Is reported z-score greater than or equal to 0.3 here: CC(C)c1ccc(NN2C(C(O)C(c3ccccc3)c3ccccc3)C=CC3C(=O)N(c4ccccc4)C(=O)C32)cc1 (centres undefined) no (0)

Is reported z-score greater than or equal to 0.3 here: O=C1OCCC=C[C@H]2OC34C=CCN(CCN5CCOCC5)C(=O)[C@H]3N(CCCCCCO)C(=O)[C@@H]4C12 (some centres undefined) yes (1)

Is reported z-score greater than or equal to 0.3 here: COCCCNC(=O)[C@@]1(Cc2ccccc2N=[N+]=[N-])N=C(c2ccc(OCCCO)cc2)O[C@H]1c1ccccc1N=[N+]=[N-] no (0)

Is reported z-score greater than or equal to 0.3 here: C=CC[C@@]1(C(=O)N(C)C)N=C(c2ccc(OCCCO)cc2)O[C@@H]1c1ccccc1N=[N+]=[N-] yes (1)

Is reported z-score greater than or equal to 0.3 here: CCOC(=O)C[C@H]1[C@H](OC(=O)Cc2ccc3c(c2)OCO3)[C@@H](NC(=O)c2ccc(-c3ccccc3)cc2)c2cc(OCCCO)ccc2N1C(=O)Cc1ccc(OC)cc1 yes (1)

Is reported z-score greater than or equal to 0.3 here: COCCOC(=O)N1C(=O)[C@@]2(c3cc(C#CC4=CCCCC4)ccc31)[C@H](C(=O)N1CCc3cc(OC)c(OC)cc3C1)[C@H]1C(=O)O[C@H](c3ccccc3)[C@H](c3ccccc3)N1[C@@H]2c1ccc(OCCO)cc1 no (0)

Is reported z-score greater than or equal to 0.3 here: [N-]=[N+]=NCc1ccccc1C[C@]1(C(=O)N2CCOCC2)N=C(c2ccc(OCCCO)cc2)O[C@H]1c1ccccc1N=[N+]=[N-] no (0)

Is reported z-score greater than or equal to 0.3 here: Cc1ccc(S[C@]2(C(=O)NC3CC3)CC(=O)N(C3Cc4ccccc4C3)[C@@H]2c2ccc(CO)cc2)cc1 yes (1)

Is reported z-score greater than or equal to 0.3 here: COc1ccc(C(=O)Nc2ccc(CN3C(=O)[C@@]4(O[C@@H](CCO)[C@H]([Si](C)(C)c5ccc(OC)cc5)[C@H]4C)c4ccccc43)cc2)cc1 no (0)

Is reported z-score greater than or equal to 0.3 here: CCOC(=O)C[C@H]1[C@H](OC(=O)c2cc3ccccc3oc2=O)[C@@H](NC(=O)Cc2ccc(OC)cc2)c2cc(OCCCO)ccc2N1C(=O)c1ccccc1 no (0)

Is reported z-score greater than or equal to 0.3 here: CN1C(=O)C2C=CC(C(O)c3ccc(I)cc3)N(N3CCCCC3)C2C1=O (centres undefined) no (0)

Is reported z-score greater than or equal to 0.3 here: Cc1ccc(S[C@]2(C(=O)NC(C)C)CC(=O)N(Cc3ccccc3Cl)[C@@H]2c2ccc(CO)cc2I)cc1 no (0)

Is reported z-score greater than or equal to 0.3 here: Cc1ccc(S[C@]2(C(=O)NCC(F)(F)F)CC(=O)N(C(C)C)[C@@H]2c2ccc(CO)cc2I)cc1 no (0)

Is reported z-score greater than or equal to 0.3 here: CC(C)[C@@H](CO)NC(=O)[C@H]1[C@@H](c2ccccc2)N(c2ccccc2)O[C@@H]1C yes (1)

Is reported z-score greater than or equal to 0.3 here: CCCCCCC#C[Si](O[C@H](c1ccccc1)c1cn([C@H](CO)Cc2ccccc2)nn1)(C(C)C)C(C)C no (0)
